Reported Total Cell Count values follow for various molecules
System: Fibroblast
METHOD NOTES: Multiplex assay against human fibroblast
Format: toxicity, cell-based
ASSAY SETUP: 48 h, 10 µM, compound concentration 10 uM, replicate 1
PROPERTY MEASURED: Total Cell Count

MOLECULE | TARGET OR TEST SYSTEM | VALUE
C=CC(=O)Nc1ccc2ncnc(Nc3ccc(OCc4cccc(F)c4)c(Cl)c3)c2c1.Cc1ccc(S(=O)(=O)O)cc1 | Fibroblast | 154
Cc1nc(-c2ccc(-c3ccc(C(=O)N4CCc5cc6c(cc54)C4(CCN(C)CC4)CO6)cc3)c(C)c2)no1 [SB-224289] | Fibroblast | 142
CC(C)(O)CNc1ncc(-c2ccnc(Nc3ccnc(Cl)c3)n2)c(CC2CC2)n1 | Fibroblast | 123
CC(C)NCC(O)COc1ccc(CCOCC2CC2)cc1.Cl (centres undefined) [BETAXOLOL HYDROCHLORIDE] | Fibroblast | 196
